Each record here notes measured IC50.
- TARGET SYSTEM: recombinant human FECH (Homo sapiens (Human), UniProt P22830)
- Sequence (P22830 55-423): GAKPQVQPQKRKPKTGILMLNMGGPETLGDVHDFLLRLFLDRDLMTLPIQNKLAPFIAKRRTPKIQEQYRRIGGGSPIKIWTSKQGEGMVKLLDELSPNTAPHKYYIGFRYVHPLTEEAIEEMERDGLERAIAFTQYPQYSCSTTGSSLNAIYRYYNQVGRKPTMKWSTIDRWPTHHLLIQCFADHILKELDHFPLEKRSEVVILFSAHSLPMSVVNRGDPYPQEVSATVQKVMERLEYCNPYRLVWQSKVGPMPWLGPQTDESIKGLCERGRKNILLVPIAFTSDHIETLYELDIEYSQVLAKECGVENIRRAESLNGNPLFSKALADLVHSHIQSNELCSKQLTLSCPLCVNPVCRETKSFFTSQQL
- EXPERIMENT NOTES: FECH enzymatic activity assay (Ni2+ mesoporphyrin IX formation, absorbance at 550 nm)
- Assay type: biochemical
- CONDITION INFO: recombinant FECH; read-out: FECH IC50

Examples from the recorded data:
{"columns": ["MOLECULE", "IC50"],
 "data": [
  ["O=c1c2c([nH]c3nc(CNc4ccc(Cl)cc4)nn13)CCC2 [Example D433-1839]", "1050 nM"],
  ["CCc1ccccc1NCc1nc2[nH]c(C)c(Cc3ccc(Cl)cc3)c(=O)n2n1 [Example D433-1585]", "1250 nM"],
  ["CCCc1cc(=O)n2nc(CNc3ccc(C)c(Cl)c3)nc2[nH]1 [Example D433-1748]", "570 nM"],
  ["COc1cccc(NCc2nc3[nH]c4c(c(=O)n3n2)CCC4)c1 [Example D433-1841]", "3750 nM"],
  ["CCOC(=O)CCc1c(C)[nH]c2nc(CNc3ccc(C)c(Cl)c3)nn2c1=O [Example D433-1688]", "2990 nM"],
  ["Cc1cc(=O)n2nc(CNc3ccccc3C)nc2[nH]1 [Example 5u]", "77200 nM"],
  ["CN(Cc1ccccc1)Cc1cc(=O)n2nc(-c3ccc(C(C)(C)C)cc3)nc2[nH]1 [Example 4a]", "> 100000 nM"]
]}

Now let's try a different one.
Input line: // lookup IC50 | system=recombinant human FECH (Homo sapiens (Human), UniProt P22830) | key= CC(C)(C)c1ccc(-c2nc3[nH]c(CNc4ccnn4-c4ccccc4)cc(=O)n3n2)cc1 [Example 4b]
Output line: > 100000 nM

====

- Test system: HRECs
- EXPERIMENT NOTES: HREC proliferation assay (alamarBlue), GI50 determination
- Assay type: cell-based, human
- CONDITION INFO: Homo sapiens, HREC, 44 h, proliferation of HRECs
ENDPOINT LABEL: GI50

{"columns": ["MOLECULE", "ENDPOINT LABEL", "MEASURED VALUE"],
 "data": [
  ["CCCc1cc(=O)n2nc(CNc3ccccc3-c3ccccc3)nc2[nH]1 [Example 5g]", "GI50", "> 100 µM"],
  ["CC(C)(C)c1ccc(-c2nc3[nH]c(CCl)cc(=O)n3n2)cc1 [Example 3]", "GI50", "> 100 µM"]
]}

Input line: What value of GI50 has been reported for the following molecule? CCCc1cc(=O)n2nc(CNc3ccc(OC(F)(F)F)cc3)nc2[nH]1 [Example 5n]
Output line: > 100 µM

Input line: What value of GI50 has been reported for the following molecule? Cc1ccc(Cl)cc1NCc1cc(=O)n2nc(-c3ccccc3C)nc2[nH]1 [Example D351-0414]
Output line: > 100 µM

Input line: What value of GI50 has been reported for the following molecule? CC(C)(C)c1ccc(-c2nc3[nH]c(CNc4ccnn4-c4ccccc4)cc(=O)n3n2)cc1 [Example 4b]
Output line: > 100 µM

Input line: What value of GI50 has been reported for the following molecule? CCCc1cc(=O)n2nc(CNc3ccc(F)c(Cl)c3)nc2[nH]1 [Example 5i]
Output line: > 100 µM

Input line: What value of GI50 has been reported for the following molecule? Cc1ccc(NCc2nc3[nH]c(C(C)C)cc(=O)n3n2)cc1 [Example 5t]
Output line: > 100 µM

Input line: What value of GI50 has been reported for the following molecule? CC(C)(C)c1ccc(-c2nc3[nH]c(CNC4CCCC4)cc(=O)n3n2)cc1 [Example 4f]
Output line: > 100 µM

Input line: What value of GI50 has been reported for the following molecule? Cc1cccc(NCc2nc3[nH]c(C)cc(=O)n3n2)c1 [Example 5v]
Output line: > 100 µM

Input line: What value of GI50 has been reported for the following molecule? COc1ccc(NCc2nc3[nH]c(C)c(Cc4ccc(Cl)cc4)c(=O)n3n2)cc1 [Example D433-1582]
Output line: > 100 µM

Input line: What value of GI50 has been reported for the following molecule? CCCc1cc(=O)n2nc(CNc3cccc(Cl)c3C)nc2[nH]1 [Example D433-1750]
Output line: > 100 µM

Input line: What value of GI50 has been reported for the following molecule? CCCc1cc(=O)n2nc(CNc3cccc(C)c3)nc2[nH]1 [Example 5b]
Output line: > 100 µM

Input line: What value of GI50 has been reported for the following molecule? CC(C)(C)c1ccc(-c2nc3[nH]c(CNCCc4ccccc4)cc(=O)n3n2)cc1 [Example 4c]
Output line: > 100 µM

====

- TARGET SYSTEM: recombinant human FECH (Homo sapiens (Human), UniProt P22830)
- EXPERIMENT NOTES: FECH enzymatic activity assay (Ni2+ mesoporphyrin IX formation, absorbance at 550 nm)
- Type: biochemical
- CONDITION INFO: recombinant FECH; read-out: FECH IC50
Each record here notes measured IC50.

Examples from the recorded data:
{"columns": ["COMPOUND", "TARGET SYSTEM", "IC50"],
 "data": [
  ["CCCc1cc(=O)n2nc(CNc3ccc(C(C)(C)C)cc3)nc2[nH]1", "recombinant human FECH (Homo sapiens (Human), UniProt P22830)", "> 100000 nM"],
  ["CC(C)(C)c1ccc(-c2nc3[nH]c(CNc4cnccn4)cc(=O)n3n2)cc1", "recombinant human FECH (Homo sapiens (Human), UniProt P22830)", "> 100000 nM"],
  ["CC(C)(C)c1ccc(-c2nc3[nH]c(CNC4CCCC4)cc(=O)n3n2)cc1", "recombinant human FECH (Homo sapiens (Human), UniProt P22830)", "> 100000 nM"],
  ["CC(C)(C)c1ccc(-c2nc3[nH]c(CNCCc4ccccc4)cc(=O)n3n2)cc1", "recombinant human FECH (Homo sapiens (Human), UniProt P22830)", "> 100000 nM"],
  ["CCCc1cc(=O)n2nc(CNc3cccc(C)c3)nc2[nH]1", "recombinant human FECH (Homo sapiens (Human), UniProt P22830)", "508 nM"],
  ["Cc1cc(=O)n2nc(-c3ccc(C(C)(C)C)cc3)nc2[nH]1", "recombinant human FECH (Homo sapiens (Human), UniProt P22830)", "> 100000 nM"],
  ["Cc1cccc(NCc2nc3[nH]c4c(c(=O)n3n2)CCC4)c1", "recombinant human FECH (Homo sapiens (Human), UniProt P22830)", "9340 nM"],
  ["CCCc1cc(=O)n2nc(CNc3ccccc3Cl)nc2[nH]1", "recombinant human FECH (Homo sapiens (Human), UniProt P22830)", "> 100000 nM"]
]}

Input line: What value of IC50 has been reported for the following compound? COc1ccc(Cl)cc1NCc1cc(=O)n2nc(-c3ccc(C(C)(C)C)cc3)nc2[nH]1
Output line: 808 nM

Input line: What value of IC50 has been reported for the following compound? Cc1cccc(NCc2nc3[nH]c(C)cc(=O)n3n2)c1
Output line: 18700 nM

Input line: What value of IC50 has been reported for the following compound? CCCCCOc1ccc(NCc2nc3[nH]c(CCC)cc(=O)n3n2)cc1
Output line: 78000 nM

Input line: What value of IC50 has been reported for the following compound? CC(C)(C)c1ccc(-c2nc3[nH]c(CNc4ccc5ccccc5n4)cc(=O)n3n2)cc1
Output line: 178 nM

Input line: What value of IC50 has been reported for the following compound? CCCc1cc(=O)n2nc(CNc3ccc(F)c(F)c3)nc2[nH]1
Output line: 42.9 nM

Input line: What value of IC50 has been reported for the following compound? CC(C)(C)c1ccc(-c2nc3[nH]c(CCl)cc(=O)n3n2)cc1
Output line: > 100000 nM

Input line: What value of IC50 has been reported for the following compound? Cc1cccc(C)c1NCc1cc(=O)n2nc(-c3ccc(C(C)(C)C)cc3)nc2[nH]1
Output line: 1390 nM

Input line: What value of IC50 has been reported for the following compound? Cc1c(Cl)cccc1NCc1nc2[nH]c(C(C)C)cc(=O)n2n1
Output line: 751 nM

Input line: What value of IC50 has been reported for the following compound? CCCc1cc(=O)n2nc(CNc3ccc(OC(F)(F)F)cc3)nc2[nH]1
Output line: 34100 nM

Input line: What value of IC50 has been reported for the following compound? Cc1ccc(Cl)cc1NCc1cc(=O)n2nc(-c3ccc(C(C)(C)C)cc3)nc2[nH]1
Output line: 98.1 nM

Input line: What value of IC50 has been reported for the following compound? Cc1ccc(NCc2nc3[nH]c4c(c(=O)n3n2)CCC4)cc1
Output line: 3620 nM

Input line: What value of IC50 has been reported for the following compound? CCN(CC)Cc1cc(=O)n2nc(-c3ccc(C(C)(C)C)cc3)nc2[nH]1
Output line: > 100000 nM

Input line: What value of IC50 has been reported for the following compound? CCCc1cc(=O)n2nc(CNc3ccc(Cl)cc3)nc2[nH]1 [Example D433-1739]
Output line: 829 nM

Input line: What value of IC50 has been reported for the following compound? Cc1ccccc1NCc1nc2[nH]c3c(c(=O)n2n1)CCC3
Output line: > 100000 nM

Input line: What value of IC50 has been reported for the following compound? CCCc1cc(=O)n2nc(CNc3ccccc3C)nc2[nH]1
Output line: 92000 nM

Input line: What value of IC50 has been reported for the following compound? Cc1ccc(NCc2nc3[nH]c4c(c(=O)n3n2)CCC4)cc1Cl
Output line: 227 nM

Input line: What value of IC50 has been reported for the following compound? CCCc1cc(=O)n2nc(CNc3ccc(F)c(Cl)c3)nc2[nH]1
Output line: 33.6 nM

Input line: What value of IC50 has been reported for the following compound? Cc1ccc(NCc2nc3[nH]c(C(C)C)cc(=O)n3n2)cc1Cl
Output line: 1020 nM

Input line: What value of IC50 has been reported for the following compound? Cc1cccc(NCc2nc3[nH]c(C(C)C)cc(=O)n3n2)c1
Output line: 28100 nM

Input line: What value of IC50 has been reported for the following compound? Cc1ccccc1NCc1nc2[nH]c(C(C)C)cc(=O)n2n1
Output line: 17900 nM

Input line: What value of IC50 has been reported for the following compound? CCCc1cc(=O)n2nc(CNc3ccc(C)cc3)nc2[nH]1
Output line: 293 nM

Input line: What value of IC50 has been reported for the following compound? CCCc1cc(=O)n2nc(CNc3ccc(F)cc3)nc2[nH]1
Output line: 525 nM

Input line: What value of IC50 has been reported for the following compound? CCCc1cc(=O)n2nc(CNc3cccc(Cl)c3)nc2[nH]1
Output line: 346 nM

Input line: What value of IC50 has been reported for the following compound? Cc1ccc(Cl)cc1NCc1cc(=O)n2nc(-c3ccccc3C)nc2[nH]1
Output line: 346 nM

Input line: What value of IC50 has been reported for the following compound? CCCc1cc(=O)n2nc(CNc3ccc(CC)cc3)nc2[nH]1
Output line: 10600 nM

These entries and their values trace back to patent US12161642B2.
